B1: C22orf15 (parent)
chain: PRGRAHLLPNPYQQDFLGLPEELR

# Variants of: B1
# ASSAY_EXPLANATION: protein stability index of a GFP-peptide fusion (GPS, HEK-293T) (PSI 1-6); higher = more stable;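 also: lentivirally expressed fusions sorted by FACS into six bins by GFP to DsRed ratio, PSI derived from sequencing read proportions per bin multiplied by bin number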
# ASSAY_CONTEXT: c terminus: a fixed tail appended
Listed here: items and their measured protein stability index.
MEASURED_ENDPOINT: protein stability index

variant_code=E21Y assay_result=2.75
variant_code=L7H assay_result=3.9
variant_code=G3A assay_result=4.32
variant_code=P11R assay_result=3.33
variant_code=P20Q assay_result=3.53
variant_code=R4V assay_result=3.86
variant_code=R24C assay_result=3.29
variant_code=P1G assay_result=3.75
variant_code=Q13F assay_result=3.1
variant_code=L8E assay_result=3.96
variant_code=E22K assay_result=3.47
variant_code=R2H assay_result=3.87
variant_code=Y12A assay_result=4.51
variant_code=H6L assay_result=3.44
variant_code=D15F assay_result=2.96
variant_code=L8H assay_result=3.86
variant_code=H6K assay_result=3.87
variant_code=Q13L assay_result=3.43
variant_code=L19C assay_result=4.26
variant_code=R2I assay_result=3.62
variant_code=A5Y assay_result=2.98
variant_code=E22H assay_result=3.42
variant_code=R24S assay_result=3.7
variant_code=Q13P assay_result=4.21
variant_code=D15M assay_result=2.97
variant_code=D15Q assay_result=3.69
variant_code=E22G assay_result=3.61
variant_code=R24L assay_result=3.47
variant_code=R24D assay_result=4.3
variant_code=G3R assay_result=3.52
variant_code=G18L assay_result=3.7
variant_code=P11M assay_result=3.72
variant_code=G3C assay_result=3.15
variant_code=Q14N assay_result=3.91
variant_code=Q14D assay_result=4.7
variant_code=P9Q assay_result=3.84
variant_code=E21G assay_result=3.61
variant_code=G18M assay_result=3.98
variant_code=R4S assay_result=3.81
variant_code=L8K assay_result=3.98
variant_code=Q14E assay_result=4.47
variant_code=N10C assay_result=3.58
variant_code=R24I assay_result=3.64
variant_code=H6C assay_result=3.68
variant_code=Y12F assay_result=3.5
variant_code=D15H assay_result=3.17
variant_code=P9T assay_result=3.61
variant_code=G18V assay_result=3.73
variant_code=L19K assay_result=4.28
variant_code=L17D assay_result=4.87
variant_code=R24M assay_result=2.97
variant_code=H6Y assay_result=3.02
variant_code=P20M assay_result=2.78
variant_code=Y12E assay_result=4.54
variant_code=R2E assay_result=4.69
variant_code=L17N assay_result=4.28
variant_code=L8P assay_result=4
variant_code=G3T assay_result=2.66
variant_code=R4A assay_result=4.23
variant_code=R2N assay_result=3.46
variant_code=G18C assay_result=3.9
variant_code=R4Y assay_result=3.57
variant_code=G18R assay_result=3.32
variant_code=D15C assay_result=2.67
variant_code=E22T assay_result=4.23
variant_code=E22M assay_result=2.64
variant_code=G3Q assay_result=3.45
variant_code=R24P assay_result=4.03
variant_code=P1V assay_result=2.83
variant_code=P20N assay_result=3.62
variant_code=N10E assay_result=3.61
variant_code=P11I assay_result=3.55
variant_code=L23I assay_result=4.09
variant_code=R2D assay_result=3.44
variant_code=N10K assay_result=3.77
variant_code=L7A assay_result=4.23
variant_code=A5P assay_result=3.56
variant_code=L8D assay_result=4.6
variant_code=E21S assay_result=3.29
variant_code=F16N assay_result=4.36
variant_code=Q13E assay_result=4.05
variant_code=Y12P assay_result=4.41
variant_code=L23Y assay_result=3.88
variant_code=D15R assay_result=3.74
variant_code=E22A assay_result=3.47
variant_code=L7M assay_result=4.18
variant_code=P9M assay_result=3.8
variant_code=A5V assay_result=3.63
variant_code=L8N assay_result=4.09
variant_code=E22D assay_result=4.06
variant_code=D15K assay_result=3.3
